B1: library; numbered along this chain (parent)
chain: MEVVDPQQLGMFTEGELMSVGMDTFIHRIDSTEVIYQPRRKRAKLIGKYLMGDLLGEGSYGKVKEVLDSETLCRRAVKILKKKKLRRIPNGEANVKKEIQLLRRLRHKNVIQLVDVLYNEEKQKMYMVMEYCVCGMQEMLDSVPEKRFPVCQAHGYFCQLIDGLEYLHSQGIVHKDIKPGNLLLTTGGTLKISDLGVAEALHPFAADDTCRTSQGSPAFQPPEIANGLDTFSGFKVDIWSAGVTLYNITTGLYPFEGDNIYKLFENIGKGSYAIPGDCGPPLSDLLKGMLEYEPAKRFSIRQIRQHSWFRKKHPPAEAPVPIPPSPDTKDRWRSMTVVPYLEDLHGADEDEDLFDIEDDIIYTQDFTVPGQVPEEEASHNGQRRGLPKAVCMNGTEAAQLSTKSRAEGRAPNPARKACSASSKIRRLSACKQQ

# Variants of: B1
# PROCEDURE TEXT: STK11 functional score (HeLa growth suppression), rescaled enrichment; synonymous median = 1, nonsense median = 0 (normalised score)
# CONDITION LABEL: with HeLa; variant type: missense
# STK11 functional score per entry

>  <MUT>
E357I

>  <STK11 functional score>
1.56

$$$$
>  <MUT>
G58Y

>  <STK11 functional score>
-0.201

$$$$
>  <MUT>
Q37G

>  <STK11 functional score>
1.08

$$$$
>  <MUT>
T367R

>  <STK11 functional score>
1.32

$$$$
>  <MUT>
E357W

>  <STK11 functional score>
0.957

$$$$
>  <MUT>
K403T

>  <STK11 functional score>
1.19

$$$$
>  <MUT>
D327V

>  <STK11 functional score>
1.31

$$$$
>  <MUT>
G346D

>  <STK11 functional score>
0.435

$$$$
>  <MUT>
N119P

>  <STK11 functional score>
1.37

$$$$
>  <MUT>
Y261C

>  <STK11 functional score>
0.999

$$$$
>  <MUT>
Q123E

>  <STK11 functional score>
1.15

$$$$
>  <MUT>
L160I

>  <STK11 functional score>
1.17

$$$$
>  <MUT>
E145T

>  <STK11 functional score>
1.54

$$$$
>  <MUT>
L164W

>  <STK11 functional score>
0.051

$$$$
>  <MUT>
S19L

>  <STK11 functional score>
0.775

$$$$
>  <MUT>
T230N

>  <STK11 functional score>
1.2

$$$$
>  <MUT>
P324G

>  <STK11 functional score>
1.36

$$$$
>  <MUT>
A198P

>  <STK11 functional score>
0.974

$$$$
>  <MUT>
K262A

>  <STK11 functional score>
1.23

$$$$
>  <MUT>
L160R

>  <STK11 functional score>
-0.13

$$$$
